Cited source: ChEMBL document CHEMBL1275350

assay: Clearance in Sprague-Dawley rat at 10 mg/kg, po; format: ADME, organism-based; set-up: dose 10 mg/kg, route oral; conditions: in vivo
// reported CL/F per item
Measured Property: CL/F (mL/min/kg)

> print(dat)
                  compound.structure.string  test.value
1  COCCn1c(COc2ccc(F)cc2)c2c(=O)n(CCN3CCOCC3)[nH]c2cc1=O        1610
2  Cn1c(COc2ccc(F)cc2)c2c(=O)n(-c3ccccc3Cl)[nH]c2cc1=O        48.7
3  O=c1c2c(COCc3ccccc3)n(Cc3cnccn3)c(=O)cc2[nH]n1-c1ccccc1Cl          20
4  O=c1c2c(CN3CCCC3)n(CCc3ccccn3)c(=O)cc2[nH]n1-c1ccc(F)cc1Cl        73.2
